ASSAY INFO: NCI Yeast Anticancer Drug Screen. Data for the mlh1 strain (AID 171);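 further: 0% = growth of vehicle-treated control cultures of the same strain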
REPORTED CONDITIONS: S. cerevisiae mlh1 strain growth inhibition; at 33.0 µM; stronger effect = higher value
About 79,000 compounds went through this panel and 15% of them were active in at least one assay; those are over-represented in the sample as a whole.
ENDPOINT NAME: growth inhibition (%)

>>> numeric_readout("Cc1cc(NCCCCCCCCNc2cc(C)nc3cc(N)ccc23)c2ccc(N)cc2n1")
97
>>> numeric_readout("CCn1c(O)c(C=Nc2ccccc2)s/c1=N/Nc1nc(-c2ccccc2)cs1")
4
>>> numeric_readout("O=C1C=C(Cl)C(=O)N1c1cccc(Cl)c1")
100
>>> numeric_readout("O=C1C(=O)c2ccccc2C(O)=C1C(C1=C(O)c2ccccc2C(=O)C1=O)c1ccc(Cl)cc1")
62
>>> numeric_readout("CCCCOCn1c(=O)[nH]c(=O)c2cc(Br)ccc21")
-41
>>> numeric_readout("Cc1ccc2c3ccc4c(c3n(C)c2c1)C(=O)C=CC4=O")
46

* * *

Reported growth inhibition values for the following compounds.
ASSAY INFO: NCI Yeast Anticancer Drug Screen. Data for the bub3 strain (AID 167)
REPORTED CONDITIONS: S. cerevisiae bub3 mutant strain, at 11.0 µM, stronger effect = higher value
Compounds without any hit were thinned out: in the full panel of roughly 79,000, 15% have a hit.
ENDPOINT NAME: growth inhibition (%)

>>> numeric_readout("CCCCC/C(=C(\\C#N)C(=O)OCC)c1ccccc1")
6
>>> numeric_readout("N#CC1=C(N)N(/N=C/c2ccccc2)C(c2ccccc2)C1(C#N)C#N (stereo unspecified)")
77
>>> numeric_readout("O=C(/C=C\\c1cccc(C(F)(F)F)c1)c1ccccc1")
-2
>>> numeric_readout("CC(=O)OC1CCC2(C)C(=CC(C3C=C4CC(OC(C)=O)CCC4(C)C4=C3C3CC5OC6(CCC(C)CO6)C(C)C5C3(C)CC4)C3=C2CCC2(C)C3CC3OC4(CCC(C)CO4)C(C)C32)C1 (stereo unspecified)")
-3
>>> numeric_readout("COc1ccc(C(=O)C(CN(C)C)CN(C)C)cc1")
-2
>>> numeric_readout("O=[N+]([O-])c1cc(S(=O)(=O)Nc2ccccc2)ccc1Nc1ccccc1")
94
>>> numeric_readout("CSc1nc(C)c(CCOC(C)=O)c(N=P(c2ccccc2)(c2ccccc2)c2ccccc2)n1")
3
>>> numeric_readout("COC(C(O)CO)C(O)C(O)C(=O)NNc1ccccc1 (stereo unspecified)")
26
>>> numeric_readout("Cc1cc2cc3cc(C)c(N)cc3nc2cc1N")
8
>>> numeric_readout("O=Cc1ccc2c(c1)C(=O)c1ccccc1C2=O")
8
>>> numeric_readout("COc1cccc(/C=N/C(/N=C/c2cccc(OC)c2O)c2cccc(OC)c2O)c1O")
1
>>> numeric_readout("O=C1N=C2SC=C(NC(=S)Nc3ccccc3)N2NC12c1ccccc1-c1ccccc12")
11
>>> numeric_readout("COc1nc2c(c(=O)n1C)N=C(c1ccccc1)[C@H](C(CC(=O)c1ccccc1)c1ccccc1)C(c1ccccc1)N2 (stereo partly specified)")
9
>>> numeric_readout("O=C1CC(=O)c2ccccc21")
0
>>> numeric_readout("O=C(O)Cc1cc(F)ccc1C(=O)O")
1
>>> numeric_readout("CCOC(=O)c1[nH]n(-c2ccccc2)c(=O)c1C=NC(=S)C(N)=S")
-8
>>> numeric_readout("CCOC(=O)C(C(=O)OCC)=P(c1ccccc1)(c1ccccc1)c1ccccc1")
1
>>> numeric_readout("CC(C)=NOC(=O)Nc1ccc(Cl)cc1")
0
>>> numeric_readout("O=C(NCCCNCCN1C(=O)c2cccc3cc([N+](=O)[O-])cc(c23)C1=O)c1cc(-c2ccccc2)nc2ccccc12")
2
>>> numeric_readout("CC(C)C(C)/C=C\\C(C)C1CCC2C3=CC=C4CC(O)CCC4(C)C3CCC21C (stereo unspecified)")
-2
>>> numeric_readout("CC(C)(CCCCC(C)(C)[N+](C)(C)C)[N+](C)(C)C")
-1

* * *

ASSAY INFO: NCI Yeast Anticancer Drug Screen. Data for the wt2 strain (AID 169);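 further: 0% = growth of vehicle-treated yeast cultures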
REPORTED CONDITIONS: S. cerevisiae wt2 strain growth inhibition; at 1.2 µM; stronger effect = higher value
About 79,000 compounds went through this panel and 15% of them were active in at least one assay; those are over-represented in the sample as a whole. Activity calls are given as the source filed them. No stated cut-off is given here; in the data, active means growth inhibition above about 70%; inactive means the rest.
ENDPOINT NAME: growth inhibition

>>> result("CC(C)(C)c1ccc(NS(=O)(=O)c2ccc(N)cc2)cc1")
"0% (inactive)"
>>> result("CC1CC(C)(C)CC(OCCN2CCCCC2)(c2ccccc2)C1 (stereo unspecified)")
"0% (inactive)"
>>> result("Cc1ccc(NC(c2ccccc2)c2ccc3cccnc3c2O)cc1 (stereo unspecified)")
"0% (inactive)"
>>> result("CCCCCCSc1ncnc2[nH]ncc12")
"-3% (inactive)"
>>> result("N#CC(=Nc1ccccc1F)Nc1ccccc1F")
"-2% (inactive)"
>>> result("O=P(NC1CCCCC1)(OCc1ccccc1)OCc1ccccc1")
"1% (inactive)"

* * *

ASSAY INFO: NCI Yeast Anticancer Drug Screen. Data for the rad50EPP+ strain (AID 151);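 further: 0% = growth of vehicle-treated control cultures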
REPORTED CONDITIONS: S. cerevisiae rad50 mutant strain, at 11.0 µM, stronger effect = higher value
Description: Growth inhibition of yeast strains with defined genetic alterations is measured as a screen for potential anti-cancer activity. Selected strains with alterations in DNA damage repair or cell cycle control were exposed to compounds and growth inhibition was measured relative to vehicle treated controls. The strain used in this assay is rad50EPP+
This is part of a sample that, as a whole, favours compounds with a hit. Of some 79,000 tested, about 15% had one in any assay.
ENDPOINT NAME: growth inhibition (%)

>>> numeric_readout("NCCNCCNc1ccc(NCCNCCN)c2c1C(=O)c1c(O)ccc(O)c1C2=O")
69
>>> numeric_readout("CSc1nnc(SC)nn1")
-2
>>> numeric_readout("CN(C)CCNc1ccc2ncnc3c2c1C(=O)c1ccccc1-3")
93
>>> numeric_readout("O=C1c2cccnc2C(=O)C2C3C=CC(C3)C12 (stereo unspecified)")
92
>>> numeric_readout("COC1=C(N)C(=O)c2nc(-c3nc(C(=O)O)c(C)c(-c4ccc(OC)c(OC)c4O)c3N)ccc2C1=O")
94
>>> numeric_readout("Cc1c(C(C)C)cc(OCCO)cc1C(C)C")
0

* * *

ASSAY INFO: NCI Yeast Anticancer Drug Screen. Data for the mgt1 strain (AID 153)
REPORTED CONDITIONS: S. cerevisiae mgt1 mutant growth inhibition; at 11.0 µM
About 79,000 compounds went through this panel and 15% of them were active in at least one assay; those are over-represented in the sample as a whole. Active and inactive are the calls of the source. No stated cut-off is given here; in the data, active means growth inhibition above about 70%; inactive means the rest.
Labels: active, inactive

>>> label_value("O=[n+]1c2ccccc2n([O-])c2cc(Br)ccc21")
"inactive"
>>> label_value("Oc1ccc2ccccc2c1CCc1c(O)ccc2ccccc12")
"inactive"
>>> label_value("CC(=O)ON=C1C=CC(=C(C#N)c2ccc(Cl)cc2)C=C1")
"inactive"
>>> label_value("CC(C)(C)c1ccc(NS(=O)(=O)c2ccc(N)cc2)cc1")
"inactive"
>>> label_value("CC(C)OC(=O)c1ccc(CCc2cc(O)c(Br)cc2O)cc1")
"active"
>>> label_value("S=c1[nH]c2cc3ccccc3cc2[nH]1")
"inactive"
>>> label_value("CC(C)=NOC(=O)Nc1ccc(Cl)cc1")
"inactive"
>>> label_value("COC(=O)C1(C)CCc2c(ccc3ccccc23)C1=O (stereo unspecified)")
"inactive"
>>> label_value("O=C1C=C(N2CCN(c3ccccn3)CC2)C(=O)c2c(O)ccc(O)c21")
"inactive"
>>> label_value("CN(C)/C=C/c1nnc([N+](=O)[O-])s1")
"inactive"
>>> label_value("CCOc1ccc(NC(=O)C2=C(C)NC(C)=C(C(=O)Nc3ccc(OCC)cc3)C2c2cccc([N+](=O)[O-])c2)cc1")
"inactive"
>>> label_value("Cc1cc2c3ccccc3c3ccccc3c2nn1")
"inactive"
>>> label_value("CCCCCOC(=S)SC(=O)OCC")
"inactive"
>>> label_value("COC1=C(OC)C(=O)C(Sc2ccc3ccccc3c2)=CC1=O")
"inactive"
>>> label_value("CCCCOCn1c(=O)[nH]c(=O)c2cc(Br)ccc21")
"inactive"
>>> label_value("CC(=O)OC1CC2C(C)(C)C(=O)C=C[C@]2(C)C2CCC3(C)C(=CCC3[C@H](CO)C[C@H](O)C(=O)C(C)(C)O)[C@]12C (stereo partly specified)")
"inactive"
>>> label_value("O=C(O)CNC(=S)Nc1ccccc1")
"inactive"
>>> label_value("COc1c(O)c(C=O)c(Br)c(C=O)c1O")
"inactive"
>>> label_value("CC(/C=C/c1ccccc1)=N\\NC(N)=S")
"inactive"
>>> label_value("O=C1OC(OC/C(Br)=C(\\Br)COC2OC(=O)C(Cl)=C2Cl)C(Cl)=C1Cl (stereo unspecified)")
"inactive"
>>> label_value("Cc1ccc2nc(-c3cccc([N+](=O)[O-])c3)oc(=O)c2c1")
"inactive"
>>> label_value("CCCCCCOC(=O)NCCOC(=O)Nc1ccccc1")
"inactive"
>>> label_value("COc1ccc(/C=C2\\NC(=S)N(/C=C3\\C(=O)Oc4ccccc4C3=O)C2=O)cc1")
"inactive"
>>> label_value("COc1cccc(/C=N/C(/N=C/c2cccc(OC)c2O)c2cccc(OC)c2O)c1O")
"inactive"
>>> label_value("O=C(NO)Nc1cc(Cl)cc(Cl)c1")
"active"
>>> label_value("O=c1nc2n(Cc3ccccc3)c3ccccc3nc-2c(=O)[nH]1")
"active"
>>> label_value("NC(N)=NS(=O)(=O)c1ccc(Nc2c3ccccc3nc3c(C(=O)NCCO)cccc23)cc1")
"inactive"
>>> label_value("CC(NCCN(C)C)C1CCC2C3CCc4cc(O)ccc4C3CCC12C (stereo unspecified)")
"inactive"
>>> label_value("CSc1nnc(SC)nn1")
"inactive"
>>> label_value("O=C(CC(=O)n1nc(-c2ccccc2)c(N=Nc2ccc(Cl)cc2)c1-c1ccccc1)Nc1cccc(Cl)c1")
"inactive"
>>> label_value("O=C(O)c1cc2ccccc2c2c1C(=O)c1ccccc1-2")
"inactive"
>>> label_value("CCOC(=O)C1=C(C)NC(C)=C(C(=O)OCCNC(=O)c2ccc(N=[N+]=[N-])cc2)C1c1ccccc1C(F)(F)F (stereo unspecified)")
"inactive"
>>> label_value("O=c1ssc(=Nc2ccccc2)n1-c1ccccc1")
"inactive"
>>> label_value("CC[N+]1(C)CCC(O)(c2ccc(OC)cc2)C(C(=O)c2ccc(OC)cc2)C1 (stereo unspecified)")
"inactive"
>>> label_value("c1ccc(CCN2CCc3ccccc3C2)cc1")
"inactive"
>>> label_value("CCCCCCC(O)CNCc1ccnc2ccc(OC)cc12 (stereo unspecified)")
"inactive"
